# System: BT-549 breast
# assay_method_text: NCI tumour cell line growth inhibition, 48 h
readout_type: TGI

# TGI (molecule: Cn1c(=O)nc2n(CCO)c(-c3ccccc3)c(-c3ccccc3)nc-2c1=O ) is > 100 µM

# TGI (molecule: Cc1sc2ncnc(Sc3nc4ccccc4[nH]3)c2c1C ) is > 100 µM

# TGI (molecule: C=C1C(=O)O[C@H]2[C@H]1CC/C(COC(=O)NCCc1ccc(OC)cc1)=C\CC[C@@]1(C)O[C@@H]21 ) is 6.41 µM

# TGI (molecule: CC1(C)CCSC(/C=C/c2ccccc2)=N1 ) is 22 µM

# TGI (molecule: Cc1ccc(S(=O)(=O)N(c2ccccc2F)C2CCCCC2O)cc1 (stereo unspecified) ) is 61.8 µM

# TGI (molecule: O=C(/C=C/c1ccc(O)c(O)c1)NC(CO)C(=O)O (stereo unspecified) ) is > 100 µM

# TGI (molecule: COc1ccccc1NC(=O)C(C#N)=C(SC)SC ) is > 100 µM

# TGI (molecule: O=C(Nc1ccccc1)N1CCNC1=S ) is > 100 µM

# TGI (molecule: FC(F)(F)c1ccc2c(c1)N(CCCN1CCN(C3CC3)CC1)c1ccccc1S2 ) is 35.4 µM

# TGI (molecule: C[C@]12CC[C@H]3[C@@H](CCC4=CC(=O)CC[C@@H]43)[C@@H]1CC[C@@H]2OC1(O)C(=O)c2ccccc2C1=O ) is > 100 µM

# TGI (molecule: CC1=NC(=Cc2ccc(Cl)cc2)C(=O)N1n1c(-c2ccccc2)nc2ccccc2c1=O ) is > 100 µM

# TGI (molecule: COc1n[n+]([O-])c(C)cc1[N+](=O)[O-] ) is 33.2 µM

# TGI (molecule: CCCCCCCCCCCCCCCCC(C(=O)O)C(O)(CC(=O)O)C(=O)O (stereo unspecified) ) is 51.3 µM

# TGI (molecule: CN(C)c1ccc(C(C#N)N2CCCN(C(C#N)c3ccc(N(C)C)cc3)C2c2ccc(N(C)C)cc2)cc1 (stereo unspecified) ) is > 100 µM

# TGI (molecule: COc1ccc(NC2=C(Sc3nc(C)cc(C)n3)C(=O)N(Cc3ccccc3)C2=O)cc1Cl ) is > 160 µM

# TGI (molecule: COc1nccc(-c2c(-c3ccc(F)cc3)ncn2C2CCC(O)CC2)n1 (stereo unspecified) ) is > 100 µM

Ref: PubChem BioAssay (NCI)
